meta.source: ChEMBL document CHEMBL3351355

compounds and their reported pKb
Molecular target: Alpha-1B adrenergic receptor (Rattus norvegicus)
Sequence (whole entry): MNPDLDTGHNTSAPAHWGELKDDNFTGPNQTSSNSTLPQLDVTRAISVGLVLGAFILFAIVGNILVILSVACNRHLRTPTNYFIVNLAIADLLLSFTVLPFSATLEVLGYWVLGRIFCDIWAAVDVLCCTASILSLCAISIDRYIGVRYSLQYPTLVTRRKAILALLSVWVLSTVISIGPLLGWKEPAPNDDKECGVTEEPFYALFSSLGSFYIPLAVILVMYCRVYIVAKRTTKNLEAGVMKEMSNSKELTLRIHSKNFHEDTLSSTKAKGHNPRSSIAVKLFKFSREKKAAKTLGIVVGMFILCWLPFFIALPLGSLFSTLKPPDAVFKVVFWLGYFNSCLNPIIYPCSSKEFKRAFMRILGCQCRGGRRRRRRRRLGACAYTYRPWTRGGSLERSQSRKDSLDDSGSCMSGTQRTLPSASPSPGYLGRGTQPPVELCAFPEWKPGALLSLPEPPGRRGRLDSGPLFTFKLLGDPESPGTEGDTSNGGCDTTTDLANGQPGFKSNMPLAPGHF
Assay: Antagonist activity at alpha1B adrenoceptor in Wistar rat spleen assessed as phenylephrine-induced contractions after 30 mins
Output: the number by itself.

{"Compound": "COc1ccccc1N1CCN(CC2COC3(CCSCC3)O2)CC1 (stereo not given)", "pKb": 7.63}
{"Compound": "COc1ccccc1N1CCN(CC2COC3(CCN(C(=O)NC(C)(C)C)CC3)O2)CC1 (stereo not given)", "pKb": 7.42}

(Q) May I ask what pKb has been recorded for COc1ccccc1N1CCN(CC2COC3(CCN(C(=O)C4CCCCC4)CC3)O2)CC1 (stereo not given) ?
(A) 7.33

(Q) Do the same for COc1ccccc1N1CCN(CC2COC3(CCN(S(=O)(=O)c4ccc([N+](=O)[O-])cc4)CC3)O2)CC1 (stereo not given) please
(A) 7.75

(Q) Subsequent entry: COc1ccccc1N1CCN(CC2COC3(CCN(S(C)(=O)=O)CC3)O2)CC1 (stereo not given)
(A) 7.46

(Q) // next record COc1ccccc1N1CCN(CC2COC3(CCN(C(=O)C(F)(F)F)CC3)O2)CC1 (stereo not given)
(A) 8

(Q) Another compound: COc1ccccc1N1CCN(CC2COC3(CCNCC3)O2)CC1 (stereo not given)
(A) 7.78

====

molecular target: 5-hydroxytryptamine receptor 1A (Homo sapiens, UniProt P08908); test: Displacement of [3H]8-OH-DPAT from human recombinant 5-HT1A receptor expressed in HeLa cells after 30 mins by liquid scintillation counting
Sequence (P08908 whole entry): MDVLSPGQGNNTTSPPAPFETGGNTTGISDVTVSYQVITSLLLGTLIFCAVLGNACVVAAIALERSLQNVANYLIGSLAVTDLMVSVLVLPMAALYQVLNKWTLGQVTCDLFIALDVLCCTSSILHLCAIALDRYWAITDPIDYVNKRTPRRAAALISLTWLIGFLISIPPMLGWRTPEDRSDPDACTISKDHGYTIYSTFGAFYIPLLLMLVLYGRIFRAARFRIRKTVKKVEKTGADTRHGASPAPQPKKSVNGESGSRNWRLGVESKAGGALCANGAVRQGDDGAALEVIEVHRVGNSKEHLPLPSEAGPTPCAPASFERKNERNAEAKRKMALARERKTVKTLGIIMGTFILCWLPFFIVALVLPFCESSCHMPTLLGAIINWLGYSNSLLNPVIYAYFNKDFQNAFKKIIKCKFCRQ
Measured Property: Ki (nM)
Enter your answer as a number in nM; do not include the unit.

{"Molecule": "COc1ccccc1N1CCN(CC2COC3(CCN(S(=O)(=O)c4cccc([N+](=O)[O-])c4)CC3)O2)CC1 (configuration not stated)", "Ki / nM": 43.7}
{"Molecule": "COc1ccccc1N1CCN(CC2COC3(CCN(C(=O)NC(C)(C)C)CC3)O2)CC1 (configuration not stated)", "Ki / nM": 87.1}
{"Molecule": "COc1ccccc1N1CCN(CC2COC3(CCN(S(=O)(=O)c4cccs4)CC3)O2)CC1 (configuration not stated)", "Ki / nM": 60.3}
{"Molecule": "COc1ccccc1N1CCN(CC2COC3(CCN(C(=O)C4CCCN4)CC3)O2)CC1 (configuration not stated)", "Ki / nM": 36.3}
{"Molecule": "COc1ccccc1N1CCN(CC2COC3(CCOCC3)O2)CC1 (configuration not stated)", "Ki / nM": 46.8}
{"Molecule": "COc1ccccc1N1CCN(CC2COC3(CCN(c4ccccc4)CC3)O2)CC1 (configuration not stated)", "Ki / nM": 15.8}

Kindly review the next molecule as well.
(Q) Fill in: Ki of COc1ccccc1N1CCN(CC2COC3(CCSCC3)O2)CC1 (configuration not stated) is ___
(A) 9.33
